assay: RP, Waters ACQUITY UPLC BEH C18, 100 × 1 mm, 1.7 µm, -1 °C, 0.15 mL/min, estimated dead time 0.33 min; A: water + 0.1% formic acid; B: acetonitrile + 0.1% formic acid; gradient (min/%B) 0/5 8/25 14/70 20/95 23/95; details: stereoisomer not certain
result_type: LC retention time (min)

Known LC retention time results, listed for orientation:
# molecule, unit_tag, LC retention time
records = [
    ("CC(C)CC(N)C(=O)O (centres undefined)", "min", 0.7),
    ("Cc1cn(C2CC(O)C(CO)O2)c(=O)[nH]c1=O (centres undefined)", "min", 0.7),
    ("Nc1ccnc(=O)[nH]1", "min", 4),
    ("CCC(=O)OC(CC(=O)[O-])C[N+](C)(C)C (centres undefined)", "min", 0.6),
    ("CC(C)(CO)C(O)C(=O)NCCC(=O)O (centres undefined)", "min", 0.7),
    ("NC(=O)c1cccnc1", "min", 0.8),
]

(P) CC(=O)NC(CCC(=O)O)C(=O)O (centres undefined)
(Q) NC(CCC(=O)NC(CS)C(=O)NCC(=O)O)C(=O)O (centres undefined)
Please choose the item with the lower LC retention time value from this pair: P and Q // respond with label for picked entry P
(P: 0.6 min, Q: 3 min)

(I) CS(=O)CCC(N)C(=O)O (centres undefined)
(II) Nc1ccccc1C(=O)CC(N)C(=O)O (centres undefined)
Which gives the smaller LC retention time number: I or II ? Answer = label. I
(I: 0.6 min, II: 0.9 min)

(P) CCCC(=O)OC(CC(=O)[O-])C[N+](C)(C)C (centres undefined)
(Q) Cc1cn(C2CC(O)C(COP(=O)(O)O)O2)c(=O)[nH]c1=O (centres undefined)
Return label of the item with the larger LC retention time. Candidates: P , Q . Provide the label of your selected option as the answer. Q
(Q: 1.2 min, P: 0.6 min)

(I) NC(=O)CCC(N)C(=O)O (centres undefined)
(II) NC(Cc1c[nH]c2ccccc12)C(=O)O (centres undefined)
(III) NC(=O)NCCCC(N)C(=O)O (centres undefined)
Sort the molecules on LC retention time; start with the lowest figure. Please write the labels in the order that was asked for. III, I, II
(III: 0.5 min, I: 0.8 min, II: 1.2 min)

###

assay: RP, Waters ACQUITY UPLC BEH C18, 100 × 1 mm, 1.7 µm, -1 °C, 0.15 mL/min, estimated dead time 0.33 min; A: water + 0.1% formic acid; B: acetonitrile + 0.1% formic acid; gradient (min/%B) 0/5 8/25 14/70 20/95 23/95; settings: stereoisomer not certain
result_type: LC retention time (min)

# molecule, LC retention time [min]
records = [
    ("CC(=O)NC1C(OP(=O)(O)OP(=O)(O)OCC2OC(n3ccc(=O)[nH]c3=O)C(O)C2O)OC(CO)C(O)C1O (centres undefined)", 0.7),
    ("C[S+](CCC(N)C(=O)O)CC1OC(n2cnc3c(N)ncnc32)C(O)C1O (centres undefined)", 0.6),
    ("NC(CCO)C(=O)O (centres undefined)", 0.9),
    ("C[N+](C)(C)CCO", 0.6),
    ("CC(=O)NC(CCC(N)=O)C(=O)O (centres undefined)", 0.6),
    ("NC(=NCCCC(N)C(=O)O)NC(CC(=O)O)C(=O)O (centres undefined)", 0.6),
    ("CSCC1OC(n2cnc3c(N)ncnc32)C(O)C1O (centres undefined)", 0.7),
    ("CC(=O)OC(CC(=O)[O-])C[N+](C)(C)C (centres undefined)", 0.7),
    ("CSCCC(NC(C)=O)C(=O)O (centres undefined)", 0.6),
    ("Cc1ncccc1C(N)=O", 0.7),
    ("C[N+](C)(C)CC(O)CC(=O)[O-] (centres undefined)", 0.7),
    ("CNCC(=O)O", 0.7),
    ("Cc1c[nH]c(=O)[nH]c1=O", 0.7),
    ("CC(C)C(N)C(=O)O (centres undefined)", 0.7),
]
